Listing: half-life of selected compounds
Test: Single-dose pharmacokinetics study in mice
Type: in vivo
Conditions: mouse; male CD1 mice, IP, 30 mg/kg, blood, LC-MS/MS; read-out: PK half-life
Protocol: Male CD1 mice were administered IP with compound dissolved in vehicle (10% HP-β-CD in 100 mM Citrate buffer, pH 7) at a dose of 30 mg/kg and mice were sacrificed at different time points (n=3 per time point) following compound administration. Blood samples were harvested at different time points and compound concentration was determined by LC-MS/MS.
Counter-ions that a name gives are not always drawn.

O=C(NCC1CCN(Cc2ccc(N3CCCC3)cc2)CC1)c1cc(-c2ccc(F)cc2F)on1 :: > 4 h

Looking for the measured half-life of O=C(NCC1CCN(C2CCCCC2)CC1)c1cc(-c2ccc(F)cc2F)on1 [Molecule 1, HCl] , can you help?
2 to 4 h
